The reported measurements were obtained from patent US12581252B2.

assay_target: H1047R PIK3CA enzyme (Homo sapiens, UniProt P42336, H1047R)
Sequence (P42336 whole entry H1047R): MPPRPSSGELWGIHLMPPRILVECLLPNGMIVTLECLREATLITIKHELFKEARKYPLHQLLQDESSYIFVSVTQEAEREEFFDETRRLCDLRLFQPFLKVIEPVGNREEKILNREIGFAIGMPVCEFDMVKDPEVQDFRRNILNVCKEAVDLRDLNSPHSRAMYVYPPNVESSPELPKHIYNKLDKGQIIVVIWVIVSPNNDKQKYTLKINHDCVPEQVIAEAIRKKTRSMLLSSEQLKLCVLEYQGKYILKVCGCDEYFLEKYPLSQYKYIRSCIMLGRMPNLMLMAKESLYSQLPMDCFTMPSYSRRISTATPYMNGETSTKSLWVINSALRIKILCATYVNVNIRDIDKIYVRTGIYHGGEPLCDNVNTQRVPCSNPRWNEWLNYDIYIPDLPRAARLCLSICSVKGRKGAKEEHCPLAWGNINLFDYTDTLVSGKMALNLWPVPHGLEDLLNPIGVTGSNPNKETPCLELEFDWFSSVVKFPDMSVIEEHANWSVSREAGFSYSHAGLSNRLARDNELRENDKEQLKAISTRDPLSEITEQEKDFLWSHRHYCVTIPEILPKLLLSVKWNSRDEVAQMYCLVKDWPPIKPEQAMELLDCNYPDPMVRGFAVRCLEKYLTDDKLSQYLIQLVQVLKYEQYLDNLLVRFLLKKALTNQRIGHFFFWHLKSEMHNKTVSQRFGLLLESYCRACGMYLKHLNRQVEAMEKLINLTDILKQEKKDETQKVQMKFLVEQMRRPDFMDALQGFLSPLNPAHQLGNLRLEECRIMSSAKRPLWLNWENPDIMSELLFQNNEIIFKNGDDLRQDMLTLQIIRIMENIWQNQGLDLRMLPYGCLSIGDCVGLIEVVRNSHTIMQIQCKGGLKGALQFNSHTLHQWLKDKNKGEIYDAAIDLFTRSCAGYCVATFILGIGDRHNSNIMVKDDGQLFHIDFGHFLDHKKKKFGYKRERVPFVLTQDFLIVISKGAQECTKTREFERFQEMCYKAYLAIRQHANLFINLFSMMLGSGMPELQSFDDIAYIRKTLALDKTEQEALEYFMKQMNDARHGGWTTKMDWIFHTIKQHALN
Sequence (P27986 whole entry partner): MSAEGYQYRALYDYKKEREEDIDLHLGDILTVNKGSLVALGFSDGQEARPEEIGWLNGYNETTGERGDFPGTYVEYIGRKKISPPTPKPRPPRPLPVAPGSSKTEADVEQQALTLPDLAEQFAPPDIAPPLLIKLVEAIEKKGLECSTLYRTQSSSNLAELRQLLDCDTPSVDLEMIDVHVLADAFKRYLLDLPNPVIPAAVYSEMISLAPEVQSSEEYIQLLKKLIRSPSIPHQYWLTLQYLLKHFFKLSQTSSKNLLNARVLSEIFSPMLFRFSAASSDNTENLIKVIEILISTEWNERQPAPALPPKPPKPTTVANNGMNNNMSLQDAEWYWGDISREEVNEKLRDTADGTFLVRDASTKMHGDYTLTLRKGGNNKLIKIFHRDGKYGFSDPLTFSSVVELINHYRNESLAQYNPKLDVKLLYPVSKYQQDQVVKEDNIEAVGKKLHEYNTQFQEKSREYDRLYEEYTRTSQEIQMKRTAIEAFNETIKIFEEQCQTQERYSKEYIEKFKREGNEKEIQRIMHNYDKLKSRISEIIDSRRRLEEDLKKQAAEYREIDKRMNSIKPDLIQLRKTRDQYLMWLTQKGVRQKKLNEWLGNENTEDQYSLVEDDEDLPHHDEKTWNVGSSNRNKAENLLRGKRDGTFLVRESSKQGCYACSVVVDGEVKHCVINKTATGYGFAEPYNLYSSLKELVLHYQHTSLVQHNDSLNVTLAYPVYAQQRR
assay_summary: ADP-Glo Biochemical PIK3CA Kinase Assay
pIC50: −log10 of the molar value.
Listed molecules paired with reported pIC50

Examples with answers:
(Q) Which pIC50 value is on record for O=C(Nc1cc(NC2COC2)cc2c1C(c1cc(F)ccc1Cl)NC2=O)c1cc(F)cc(C(F)(F)F)c1 (centres unmarked) ?
(A) ≥ 7.00

(Q) Which pIC50 value is on record for `N#CC1(n2cc(-c3cc(NC(=O)c4cc(F)cc(C(F)(F)F)c4)c4c(c3)C(=O)N[C@@H]4c3cc(F)ccc3Cl)cn2)CC1` ?
(A) 6.00 to 6.30

(Q) Which pIC50 value is on record for N#CC1(C(=O)Nc2cc(-c3ccc4ncnn4c3)cc3c2C(c2cc(F)ccc2Cl)NC3=O)CCCC1 (centres unmarked) ?
(A) 4.00 to 5.00

(Q) Which pIC50 value is on record for O=C1N[C@H](c2cc(F)ccc2Cl)c2c(NC(=O)N3C[C@@](O)(C(F)F)c4cc(F)ccc43)cc(F)cc21 (single isomer, unassigned) ?
(A) 5.00 to 6.00

(Q) Which pIC50 value is on record for O=C(Nc1cc(C(O)(O)C(F)(F)F)cc2c1C(c1cc(F)ccc1Cl)NC2=O)c1cc(F)cc(C(F)(F)F)c1 (centres unmarked) ?
(A) 6.30 to 7.00

(Q) Which pIC50 value is on record for Cc1ccccc1C1NC(=O)c2cccc(NC(=O)c3csc4c(F)cccc34)c21 (centres unmarked) ?
(A) 6.30 to 7.00

(Q) Which pIC50 value is on record for CCC1C(C)CCN1C(=O)Nc1cccc2c1C(c1cc(F)ccc1Cl)NC2=O (mixture of isomers) ?
(A) 5.00 to 6.00

(Q) Which pIC50 value is on record for O=C(O)COc1ncc(-c2cc(NC(=O)c3cc(F)cc(C(F)(F)F)c3)c3c(c2)C(=O)NC3c2cc(F)ccc2Cl)cn1 (centres unmarked) ?
(A) ≥ 7.00

(Q) Which pIC50 value is on record for O=C(Nc1cc(NC2CCC(O)C2)cc2c1C(c1cc(F)ccc1Cl)NC2=O)c1cc(F)cc(C(F)(F)F)c1 (centres unmarked) ?
(A) ≥ 7.00

(Q) Which pIC50 value is on record for O=C1NC(c2cc(F)ccc2Cl)c2c(COc3cc4ccccc4cn3)cc(-c3ccc4ncnn4c3)cc21 (centres unmarked) ?
(A) 5.00 to 6.00

More entries:
(Q) Which pIC50 value is on record for N#Cc1cncn1Cc1cc(NC(=O)c2cc(F)cc(C(F)(F)F)c2)c2c(c1)C(=O)N[C@H]2c1cc(F)ccc1Cl (stereo in doubt) ?
(A) ≥ 7.00

(Q) Which pIC50 value is on record for `O=C(Nc1cc(-c2cscn2)cc2c1[C@H](c1cc(F)ccc1Cl)NC2=O)c1cc(F)cc(C(F)(F)F)c1` ?
(A) ≥ 7.00
